target-system: USP28 (His-tagged USP28-FL-mammalian) (Homo sapiens, UniProt Q96RU2)
Construct: Expression of USP28 (1-1077)-TEV-6*His (pTT5 vector); made in house; host or cells: Expi293f cells (pTT5 vector)
Sequence (Q96RU2 whole entry): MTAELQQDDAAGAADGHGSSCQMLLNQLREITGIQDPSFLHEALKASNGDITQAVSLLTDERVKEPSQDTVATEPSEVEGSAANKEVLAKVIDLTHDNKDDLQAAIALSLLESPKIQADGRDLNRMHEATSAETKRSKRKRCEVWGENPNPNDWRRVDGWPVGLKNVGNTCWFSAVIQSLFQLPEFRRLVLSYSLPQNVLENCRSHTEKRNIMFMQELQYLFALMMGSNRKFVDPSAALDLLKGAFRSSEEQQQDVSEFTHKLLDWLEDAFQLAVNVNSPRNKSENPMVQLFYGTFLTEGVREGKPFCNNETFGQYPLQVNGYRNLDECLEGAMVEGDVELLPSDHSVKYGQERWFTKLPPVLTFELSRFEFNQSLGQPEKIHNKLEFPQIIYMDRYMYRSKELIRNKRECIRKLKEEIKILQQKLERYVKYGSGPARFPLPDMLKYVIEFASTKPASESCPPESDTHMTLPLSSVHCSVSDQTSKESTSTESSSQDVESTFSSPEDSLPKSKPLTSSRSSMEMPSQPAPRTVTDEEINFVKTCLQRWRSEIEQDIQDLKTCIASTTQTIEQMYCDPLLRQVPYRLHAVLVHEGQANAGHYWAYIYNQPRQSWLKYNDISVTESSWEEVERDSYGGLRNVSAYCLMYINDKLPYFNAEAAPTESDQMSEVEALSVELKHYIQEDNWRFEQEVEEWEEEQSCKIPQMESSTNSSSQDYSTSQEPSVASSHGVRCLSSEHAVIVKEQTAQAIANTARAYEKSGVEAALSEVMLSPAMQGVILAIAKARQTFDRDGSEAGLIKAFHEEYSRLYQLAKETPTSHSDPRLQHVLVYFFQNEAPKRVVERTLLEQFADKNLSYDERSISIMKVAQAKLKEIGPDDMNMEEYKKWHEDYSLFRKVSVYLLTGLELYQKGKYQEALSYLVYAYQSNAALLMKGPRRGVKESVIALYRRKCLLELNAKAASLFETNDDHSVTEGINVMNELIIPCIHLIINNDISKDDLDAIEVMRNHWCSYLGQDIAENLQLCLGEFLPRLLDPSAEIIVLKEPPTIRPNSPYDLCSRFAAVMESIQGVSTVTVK
test-name: Ubiquitin-Rhodamine 110 Assay for USP28 Activity, Example A-1(a)
Assay type: biochemical
measurement-conditions: Ub-Rh110 assay, Example A-1(a); read-out: USP28 A-1(a) IC50 range
pIC50: −log10 of the molar value.
I'd be grateful if you could share measured pIC50 for these entries.

Value lookup for pIC50; key = Cc1cnc2c(N)c(C(=O)N[C@H]3COc4cc(N5CC6CC(C5)N6)ccc4C3)sc2n1
7.30 to 9.00

Value lookup for pIC50; key = Cc1cc(C(F)(F)F)c2c(N)c(C(=O)N[C@H]3COc4cc(N5CC6CC(C5)N6)ccc4C3)sc2n1
7.30 to 9.00

Value lookup for pIC50; key = Cc1cc(C)c2c(N)c(C(=O)N[C@H]3COc4cc(N5CC6CNCC(C5)C6(F)F)ccc4C3)sc2n1
7.30 to 9.00
